Hello, the source for this data is patent US6262116A, in case you need it.

assay: Plasma concentrations of phenylbutyrate during clinical infusion; format: in vivo, human; details: human, plasma, 150 mg/kg; patient, intravenous infusion; read-out: peak plasma levels transiently attained after completing the drug infusion
metricName: Cmax

Record request: Cmax value, item O=C(O)CCCc1ccccc1 [phenylbutyrate, sodium phenylbutyrate] ~2000 µM
